Sourced from patent EP0942911B1

Target: α-1A adrenoreceptor (Rattus norvegicus)
Test: cell-based
Settings: phenylephrine-induced contraction; Schild plot; read-out: In Vitro Characterization (pA2) Rat Vas (converted)
Structures can show the parent of a compound that is named as a salt.
Each entry below carries its recorded Kb.
Value expressed in pM; do not type the unit.

[
  {
    "COMPOUND": "COc1cccc2c1[C@@H]1CN(CCCCn3c(=O)[nH]c4c(sc5ncc(Cl)nc54)c3=O)C[C@H]1CO2 [Example 13, hydrochloride]",
    "Kb, pM": 158
  },
  {
    "COMPOUND": "COc1cccc2c1[C@@H]1CN(CCCCn3c(=O)[nH]c4c(sc5c(OC)ccnc54)c3=O)C[C@H]1CO2 [Example 17, dihydrochloride]",
    "Kb, pM": 112
  }
]

// next item, Kb requested
Item: COc1cccc2c1[C@@H]1CN(CCCCn3c(=O)[nH]c4c(sc5ccc(OC(C)C)nc54)c3=O)C[C@H]1CO2 [Example 51, hydrochloride] | Kb: 631

---

Each entry below carries its recorded Ki.
Target: UniProt:P23944
Sequence (P23944 1-561): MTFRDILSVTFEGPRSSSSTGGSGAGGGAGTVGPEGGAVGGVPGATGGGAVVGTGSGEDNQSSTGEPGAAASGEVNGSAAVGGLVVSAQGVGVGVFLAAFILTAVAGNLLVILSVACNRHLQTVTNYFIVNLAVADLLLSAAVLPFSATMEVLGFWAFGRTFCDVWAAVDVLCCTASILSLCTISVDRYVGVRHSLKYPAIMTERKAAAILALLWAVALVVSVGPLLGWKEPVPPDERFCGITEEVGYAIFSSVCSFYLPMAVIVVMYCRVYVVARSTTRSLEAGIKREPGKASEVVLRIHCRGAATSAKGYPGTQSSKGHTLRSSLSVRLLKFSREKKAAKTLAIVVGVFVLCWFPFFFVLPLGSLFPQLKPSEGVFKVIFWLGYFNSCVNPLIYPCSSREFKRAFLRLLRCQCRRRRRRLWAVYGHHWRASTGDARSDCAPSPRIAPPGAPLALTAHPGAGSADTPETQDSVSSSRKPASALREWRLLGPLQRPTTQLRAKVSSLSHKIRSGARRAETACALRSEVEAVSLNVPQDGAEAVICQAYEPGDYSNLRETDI
Assay: biochemical
Format: binding
Conditions: read-out: Radioligand Binding (Ki, nM) 1d (Rat)
Structures can show the parent of a compound that is named as a salt.
Value expressed in nM; do not type the unit.

Illustrative cases are given below, each with its answer.
[
  {
    "COMPOUND": "COc1ccc2c(c1)[C@@H]1CN(CCCCn3c(=O)[nH]c4c(sc5nccnc54)c3=O)C[C@@H]1CO2 (racemic) [Example 76, hydrochloride]",
    "UNIT SPEC": "nM",
    "Ki": 12.9
  },
  {
    "COMPOUND": "COc1ccc2c(c1)[C@@H]1CN(CCCn3c(=O)[nH]c4c(sc5ncccc54)c3=O)C[C@@H]1CO2 (racemic) [Example 77, hydrochloride]",
    "UNIT SPEC": "nM",
    "Ki": 106
  },
  {
    "COMPOUND": "COc1cccc2c1OC[C@H]1CN(CCn3c(=O)[nH]c4c(sc5ccccc54)c3=O)C[C@@H]21.Cl (racemic) [Example 67, hydrochloride]",
    "UNIT SPEC": "nM",
    "Ki": 65
  }
]

Item: COc1cccc2c1[C@@H]1CN(CCCCn3c(=O)[nH]c4c(sc5cccnc54)c3=O)C[C@@H]1CO2 (racemic) [Example 73, dihydrochloride] | Ki: 0.187

Item: COc1cccc2c1[C@H]1CN(CCCCn3c(=O)[nH]c4c(sc5nccnc54)c3=O)C[C@@H]1CO2.Cl.Cl (racemic) [Example 74, dihydrochloride] | Ki: 2.94

Item: COc1cccc2c1[C@@H]1CN(CCCn3c(=O)[nH]c4c(sc5ccccc54)c3=O)C[C@@H]1CO2.Cl (racemic) [Example 66, hydrochloride] | Ki: 87.7

---

Each entry below carries its recorded Ki.
Biological target: α-1b adrenoreceptor (Mesocricetus auratus, UniProt P18841)
Sequence (P18841 whole entry): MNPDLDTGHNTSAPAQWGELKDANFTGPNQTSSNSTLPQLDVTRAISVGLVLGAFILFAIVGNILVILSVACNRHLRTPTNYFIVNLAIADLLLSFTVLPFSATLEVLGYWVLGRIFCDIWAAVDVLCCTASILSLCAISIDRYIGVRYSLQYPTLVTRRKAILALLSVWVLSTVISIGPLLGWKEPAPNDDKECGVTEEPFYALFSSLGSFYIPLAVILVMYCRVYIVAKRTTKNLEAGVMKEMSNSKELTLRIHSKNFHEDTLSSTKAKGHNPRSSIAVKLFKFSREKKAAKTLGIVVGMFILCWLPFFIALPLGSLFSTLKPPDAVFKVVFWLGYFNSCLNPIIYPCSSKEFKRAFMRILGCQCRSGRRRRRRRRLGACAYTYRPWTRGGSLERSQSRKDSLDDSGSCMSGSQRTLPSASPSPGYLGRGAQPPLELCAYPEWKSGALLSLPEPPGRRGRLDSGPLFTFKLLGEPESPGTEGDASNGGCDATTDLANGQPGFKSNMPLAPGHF
Assay: biochemical
Assay type: binding, hamster
Details: [3H]-prazosin radioligand; cloned receptor in LTK cell membranes; read-out: Radioligand Binding (Ki, nM) 1b (Hamster)
Counter-ions that a name gives are not always drawn.
Value expressed in nM; do not type the unit.

Illustrative cases are given below, each with its answer.
[
  {
    "COMPOUND": "COc1cccc2c1[C@H]1CN(CCCCn3c(=O)[nH]c4c(sc5ncc(-c6ccccc6)nc54)c3=O)C[C@@H]1CO2 [Example 9, hydrochloride]",
    "ENDPOINT": "Ki",
    "UNIT SPEC": "nM",
    "OBSERVED MEASUREMENT": 17.8
  },
  {
    "COMPOUND": "COc1cccc2c1[C@@H]1CN(CCCCCn3c(=O)[nH]c4c(sc5ccccc54)c3=O)C[C@H]1CO2 [Example 23, hydrochloride]",
    "ENDPOINT": "Ki",
    "UNIT SPEC": "nM",
    "OBSERVED MEASUREMENT": 0.973
  }
]

// next item, Ki requested
Item: COc1cccc2c1[C@@H]1CN(CCCCCn3c(=O)[nH]c4c(sc5ccccc54)c3=O)C[C@@H]1CO2 [Example 24, hydrochloride] | Ki: 5.56

---

Molecular target: α-1d adrenoreceptor (Rattus norvegicus, UniProt P23944)
Sequence (P23944 1-561): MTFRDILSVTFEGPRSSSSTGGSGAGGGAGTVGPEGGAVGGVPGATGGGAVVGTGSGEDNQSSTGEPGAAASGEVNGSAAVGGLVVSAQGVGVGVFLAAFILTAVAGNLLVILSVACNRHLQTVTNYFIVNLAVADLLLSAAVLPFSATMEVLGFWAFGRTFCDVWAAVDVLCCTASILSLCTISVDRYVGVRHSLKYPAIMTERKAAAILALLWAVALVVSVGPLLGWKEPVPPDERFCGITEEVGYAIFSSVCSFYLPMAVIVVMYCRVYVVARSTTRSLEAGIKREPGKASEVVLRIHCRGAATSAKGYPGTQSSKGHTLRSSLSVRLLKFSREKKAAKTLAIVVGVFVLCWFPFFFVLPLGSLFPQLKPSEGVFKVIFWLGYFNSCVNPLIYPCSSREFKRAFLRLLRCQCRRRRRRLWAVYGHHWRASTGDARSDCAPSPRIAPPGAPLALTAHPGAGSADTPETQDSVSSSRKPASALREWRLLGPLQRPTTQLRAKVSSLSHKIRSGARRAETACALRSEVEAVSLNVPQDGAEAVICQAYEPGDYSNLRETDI
Assay: biochemical
Type: binding
ENDPOINT: Ki (nM)
Value expressed in nM; do not type the unit.

Item: COc1cc2nc(N3CCN(C(=O)C4COc5ccccc5O4)CC3)nc(N)c2cc1OC (stereo not shown) [Doxazosin, doxazosin, reference compound] | Ki: 0.231

---

Target: α-1A adrenoreceptor (rat submaxillary gland) (Rattus norvegicus)
Sequence (P43140 1-466): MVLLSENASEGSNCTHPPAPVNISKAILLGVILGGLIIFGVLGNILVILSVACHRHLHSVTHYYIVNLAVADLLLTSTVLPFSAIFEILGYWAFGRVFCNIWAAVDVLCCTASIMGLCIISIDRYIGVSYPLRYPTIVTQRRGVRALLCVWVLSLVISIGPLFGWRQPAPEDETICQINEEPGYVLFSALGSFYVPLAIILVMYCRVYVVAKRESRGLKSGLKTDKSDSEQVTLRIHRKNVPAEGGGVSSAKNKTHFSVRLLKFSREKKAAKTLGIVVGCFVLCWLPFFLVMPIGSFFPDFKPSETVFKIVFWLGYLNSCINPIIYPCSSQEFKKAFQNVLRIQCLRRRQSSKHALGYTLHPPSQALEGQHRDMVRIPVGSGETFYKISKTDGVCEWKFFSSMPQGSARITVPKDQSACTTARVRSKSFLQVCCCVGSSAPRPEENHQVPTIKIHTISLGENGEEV
Test: biochemical
Format: binding
Conditions: [3H]-prazosin radioligand; rat submaxillary gland membranes; read-out: Radioligand Binding (Ki, nM) 1A (Rat)
Where a name gives a salt, the structure may show the parent alone.
ENDPOINT: Ki (nM)
Value expressed in nM; do not type the unit.

Illustrative cases are given below, each with its answer.
[
  {
    "MOLECULE": "COc1cccc2c1[C@H]1CCN(CCCn3c(=O)[nH]c4c(sc5cccnc54)c3=O)C[C@@H]1CO2 [Example 93, dihydrochloride]",
    "UNIT SPEC": "nM",
    "Ki": 4.04
  },
  {
    "MOLECULE": "COc1cccc2c1[C@@H]1CN(CCCCCn3c(=O)[nH]c4c(sc5ccccc54)c3=O)C[C@H]1CO2 [Example 23, hydrochloride]",
    "UNIT SPEC": "nM",
    "Ki": 0.743
  },
  {
    "MOLECULE": "COc1cccc2c1[C@@H]1CN(CCCCn3c(=O)[nH]c4c(sc5c(OC)ccnc54)c3=O)C[C@@H]1CO2 [Example 18, dihydrochloride]",
    "UNIT SPEC": "nM",
    "Ki": 0.284
  },
  {
    "MOLECULE": "COc1cccc2c1[C@H]1CN(CCCCn3c(=O)[nH]c4c(sc5nccnc54)c3=O)C[C@@H]1CO2 [Example 12, dihydrochloride]",
    "UNIT SPEC": "nM",
    "Ki": 0.52
  },
  {
    "MOLECULE": "COc1cccc2c1[C@@H]1CCN(CCCCn3c(=O)[nH]c4c(sc5ncc(Cl)nc54)c3=O)C[C@H]1CO2 [Example 97, dihydrochloride]",
    "UNIT SPEC": "nM",
    "Ki": 0.892
  }
]

// next item, Ki requested
Item: COc1cnc2c(c1)sc1c(=O)n(CCCCN3C[C@H]4COc5cccc(OC)c5[C@@H]4C3)c(=O)[nH]c12 [Example 27, hydrochloride] | Ki: 0.121
